Origin of the recorded values: paper PMC5903430

- SYSTEM: hα4β2 AChR (Homo sapiens, UniProt P17787+P43681)
- Sequence (P17787 26-502): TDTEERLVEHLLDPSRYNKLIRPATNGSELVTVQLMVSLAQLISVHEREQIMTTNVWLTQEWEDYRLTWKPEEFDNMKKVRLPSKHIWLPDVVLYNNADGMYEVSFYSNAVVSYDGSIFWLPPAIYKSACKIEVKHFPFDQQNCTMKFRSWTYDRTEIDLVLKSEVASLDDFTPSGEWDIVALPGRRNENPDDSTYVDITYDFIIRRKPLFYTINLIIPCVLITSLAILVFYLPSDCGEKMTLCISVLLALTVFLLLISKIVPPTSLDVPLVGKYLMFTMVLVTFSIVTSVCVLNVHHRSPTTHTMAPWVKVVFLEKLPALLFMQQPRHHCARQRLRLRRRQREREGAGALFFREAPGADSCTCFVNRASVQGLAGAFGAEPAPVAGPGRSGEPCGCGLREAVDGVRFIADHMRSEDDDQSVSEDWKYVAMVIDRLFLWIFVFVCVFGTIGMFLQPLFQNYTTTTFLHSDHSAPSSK
- Sequence (P43681 29-627): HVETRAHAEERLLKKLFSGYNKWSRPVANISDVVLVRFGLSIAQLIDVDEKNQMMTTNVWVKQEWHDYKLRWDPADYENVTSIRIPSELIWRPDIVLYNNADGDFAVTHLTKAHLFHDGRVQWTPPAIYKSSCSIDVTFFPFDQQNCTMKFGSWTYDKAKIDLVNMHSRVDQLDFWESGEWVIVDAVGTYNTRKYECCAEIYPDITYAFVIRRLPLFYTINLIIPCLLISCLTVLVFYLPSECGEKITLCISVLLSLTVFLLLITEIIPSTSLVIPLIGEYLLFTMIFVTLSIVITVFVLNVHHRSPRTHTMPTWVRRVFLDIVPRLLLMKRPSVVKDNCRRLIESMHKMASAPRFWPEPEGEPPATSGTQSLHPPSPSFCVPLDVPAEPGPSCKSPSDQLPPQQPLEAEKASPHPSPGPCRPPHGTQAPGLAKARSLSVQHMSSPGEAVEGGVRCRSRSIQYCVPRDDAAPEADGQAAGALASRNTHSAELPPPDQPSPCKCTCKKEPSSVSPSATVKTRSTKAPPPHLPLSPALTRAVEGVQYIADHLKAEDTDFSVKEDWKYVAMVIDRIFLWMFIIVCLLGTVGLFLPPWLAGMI
- EXPERIMENTAL CONTEXT: read-out: IC50 (inhibitory potency)
PROPERTY NAME: IC50

[in] If you can, please state the reported IC50 value of CNCC[C@H]1CC2CN3CCc4c([nH]c5ccccc45)[C@](C(=O)OC)(C2)[C@H]13 (racemic) [(±)-18-MAC, (±)-18-Methylaminocoronaridine] .
[out] 20.7 µM

* * *

- SYSTEM: hα7 AChR (Homo sapiens, UniProt P36544)
- Sequence (P36544 23-502): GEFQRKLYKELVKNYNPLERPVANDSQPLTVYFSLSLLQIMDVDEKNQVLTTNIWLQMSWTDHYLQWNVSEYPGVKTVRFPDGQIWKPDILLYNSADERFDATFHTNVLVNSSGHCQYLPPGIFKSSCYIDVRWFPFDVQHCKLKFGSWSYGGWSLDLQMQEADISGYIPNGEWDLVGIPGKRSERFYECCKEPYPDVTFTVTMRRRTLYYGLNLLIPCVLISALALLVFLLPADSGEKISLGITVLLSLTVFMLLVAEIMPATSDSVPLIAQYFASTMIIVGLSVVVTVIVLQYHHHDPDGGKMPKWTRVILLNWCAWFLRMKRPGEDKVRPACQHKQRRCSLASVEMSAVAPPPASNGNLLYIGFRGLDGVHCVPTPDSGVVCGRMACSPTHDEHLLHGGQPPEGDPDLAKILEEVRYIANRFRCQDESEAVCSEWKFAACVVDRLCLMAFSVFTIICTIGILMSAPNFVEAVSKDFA
- EXPERIMENTAL CONTEXT: read-out: EC50 (activation potency); agonist-induced Ca2+ influx, GH3-hα7 cells, n = 25
PROPERTY NAME: pEC50
// pEC50 is dimensionless: -log10 of concentration (M)

[in] If you can, please state the reported pEC50 value of Clc1ccc(C2CC3CCC2N3)cn1 (racemic) [(±)-epibatidine, (±)-Epibatidine, reference compound] .
[out] 7.59
